- Subject of test: human CD33 variant R122I (human, UniProt P20138 18-364)
- Sequence (P20138 18-364 R122I limits assumed): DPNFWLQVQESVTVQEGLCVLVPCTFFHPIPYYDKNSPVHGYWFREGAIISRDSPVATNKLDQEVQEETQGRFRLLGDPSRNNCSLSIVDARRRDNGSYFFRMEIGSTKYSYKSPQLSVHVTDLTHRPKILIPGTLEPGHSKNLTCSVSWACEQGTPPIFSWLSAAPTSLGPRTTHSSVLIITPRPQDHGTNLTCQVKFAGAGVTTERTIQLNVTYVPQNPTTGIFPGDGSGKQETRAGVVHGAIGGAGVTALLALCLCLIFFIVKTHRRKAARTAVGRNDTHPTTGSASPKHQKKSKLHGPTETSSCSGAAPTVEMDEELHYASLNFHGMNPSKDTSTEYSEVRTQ
- Test name: flow cytometry, IgG on cells expressing the mutant
Form field: Mean % WT Binding (one value per entry).

Binder: Refmab #2 (antibody, human IgG1, V domains shown, Tested in IgG format; human IgG1 Fc silent (PG-LALA)) VH: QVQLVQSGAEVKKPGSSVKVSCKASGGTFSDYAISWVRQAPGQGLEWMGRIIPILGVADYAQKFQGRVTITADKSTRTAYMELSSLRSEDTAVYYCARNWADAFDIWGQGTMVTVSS VL: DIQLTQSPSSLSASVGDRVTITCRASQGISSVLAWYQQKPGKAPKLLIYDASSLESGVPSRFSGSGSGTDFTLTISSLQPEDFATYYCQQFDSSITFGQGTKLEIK
Mean % WT Binding: 1.1 % of WT
//
Binder: Refmab #3 (antibody, human IgG1, V domains shown, Tested in IgG format; human IgG1 Fc silent (PG-LALA)) VH: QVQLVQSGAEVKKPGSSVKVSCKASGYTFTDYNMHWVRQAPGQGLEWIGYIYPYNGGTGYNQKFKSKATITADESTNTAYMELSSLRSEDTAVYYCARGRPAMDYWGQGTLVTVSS VL: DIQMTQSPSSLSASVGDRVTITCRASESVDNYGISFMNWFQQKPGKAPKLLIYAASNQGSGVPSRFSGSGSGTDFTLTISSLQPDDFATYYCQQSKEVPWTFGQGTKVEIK
Mean % WT Binding: 112 % of WT
//
Binder: Refmab #4 (antibody, human IgG1, V domains shown, Tested in IgG format; human IgG1 Fc silent (PG-LALA)) VH: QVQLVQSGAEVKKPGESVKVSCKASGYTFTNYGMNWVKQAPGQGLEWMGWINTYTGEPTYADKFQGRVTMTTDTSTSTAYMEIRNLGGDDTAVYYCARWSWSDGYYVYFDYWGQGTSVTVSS VL: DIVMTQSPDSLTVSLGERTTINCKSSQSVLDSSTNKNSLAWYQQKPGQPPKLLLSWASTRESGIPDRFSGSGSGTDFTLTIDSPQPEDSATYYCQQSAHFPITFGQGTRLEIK
Mean % WT Binding: 85.8 % of WT
//
Binder: Refmab #1 (antibody, human IgG1, V domains shown, Tested in IgG format; human IgG1 (Absolute Antibody hP67.6, Cat. No. Ab00283-10.0); also called hP67.6) VH: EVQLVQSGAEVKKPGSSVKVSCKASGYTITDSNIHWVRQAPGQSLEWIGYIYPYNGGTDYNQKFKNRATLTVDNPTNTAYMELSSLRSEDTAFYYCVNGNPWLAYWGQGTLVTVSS VL: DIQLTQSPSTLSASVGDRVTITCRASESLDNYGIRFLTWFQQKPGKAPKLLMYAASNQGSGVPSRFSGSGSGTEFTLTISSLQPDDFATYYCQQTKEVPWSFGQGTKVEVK
Mean % WT Binding: 110 % of WT
